The reader will find reported absorbance 450 nm minus 540 nm values listed item by item below.
target: T1, peptide GDVFPSYTCTCLKG (SEQ ID NO:84), N-terminally biotinylated (human, cysteine pairing not given here); assay: ELISA, biotin-peptide on neutravidin plate, antibody 1 ug/ml
T1 construct: Human lactadherin 14-mer with part of the RGD domain at the N-terminus
T1 peptide: Biotin-GDVFPSYTCTCLKG
Ends that are not written are not given here. * marks the point of attachment. Biotin = O=C1N[C@H]2[C@H](CS[C@H]2CCCCC(=O)*)N1

{"columns": ["BINDER", "absorbance 450 nm minus 540 nm"],
 "data": [
  ["huMc3 antibody (antibody, V domains shown) VH: EVQLVQSGAEVKKPGASVKVSCKASGYSFTGYTMHWVKQSPGMNLEWIGLINPYNGGTVYNQKFQDKATLTVDKSTSTAYMELSSLRSEDTAVYFCARRWRYTMDYWGQGTLVTVSS VL: DIVMTQSPDSLAVSLGERATITCKASQDVSIGVAWYQQKPGQSPKLLIYSASSRYTGVPDRFSGSGSGTDFTLTISSLQAEDVAVYYCQQHYTSPFTFGSGTKVEIK", "0.08 absorbance"],
  ["anti-lactadherin antibody 399A12 (antibody, V domains shown, Murine monoclonal, kappa light chain; Variable regions identical to those of 416H9; also called hybridoma 399A12; LMBP 9491CB) VH: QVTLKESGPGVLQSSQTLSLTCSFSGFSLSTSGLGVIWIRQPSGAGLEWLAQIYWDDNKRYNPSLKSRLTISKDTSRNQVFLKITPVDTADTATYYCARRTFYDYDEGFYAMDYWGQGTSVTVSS VL: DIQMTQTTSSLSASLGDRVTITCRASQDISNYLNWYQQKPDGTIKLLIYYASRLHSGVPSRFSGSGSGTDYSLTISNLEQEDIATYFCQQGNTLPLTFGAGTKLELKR", "0.03 absorbance"],
  ["anti-lactadherin antibody 215A9 (antibody, IgG1, V domains shown, also called 2154A9; hybridoma 215A9) VH: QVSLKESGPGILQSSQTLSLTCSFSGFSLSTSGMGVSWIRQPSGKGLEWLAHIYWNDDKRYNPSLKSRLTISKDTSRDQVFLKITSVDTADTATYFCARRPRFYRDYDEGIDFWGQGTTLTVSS VL: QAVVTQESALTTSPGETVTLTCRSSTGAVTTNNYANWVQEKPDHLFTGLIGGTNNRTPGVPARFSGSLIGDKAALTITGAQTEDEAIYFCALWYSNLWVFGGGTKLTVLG", "0.04 absorbance"]
]}
